- assay_procedure: Biodistribution of 177Lu-labeled αMSH analogues in mice bearing B16F10 mouse melanoma
- Assay type: in vivo, C57BL/6J mice
- condition_details: mouse, bone, iv, total radioactivity; 24 h p.i., C57BL/6J mice, B16F10 melanoma; read-out: Biodistribution, Bone
Recorded tissue uptake at 24 h, one value per entry.
Give the number; %ID/g is assumed, so skip it.

Worked set:
CCCC[C@H](NC(=O)CN1CCC(NC(=O)CN2CCN(CC(=O)O)CCN(CC(=O)O)CCN(CC(=O)O)CC2)CC1)C(=O)N[C@H]1CC(=O)NCCCC[C@@H](C(N)=O)N(C)C(=O)[C@H](Cc2c[nH]c3ccccc23)N(C)C(=O)[C@H](CCCNC(=N)N)N(C)C(=O)[C@@H](Cc2ccccc2)NC(=O)[C@H](Cc2c[nH]cn2)N(C)C1=O [^177Lu-labeled CCZ01099, metal not drawn]; 0.04
CCCC[C@H](NC(=O)CN1CCC(NC(=O)[C@H](CCCCNC(=O)CN2CCN(CC(=O)O)CCN(CC(=O)O)CCN(CC(=O)O)CC2)NC(=O)[C@H](CCC(=O)O)NC(=O)CCCc2ccc(I)cc2)CC1)C(=O)N[C@H]1CC(=O)NCCCC[C@@H](C(N)=O)N(C)C(=O)[C@H](Cc2c[nH]c3ccccc23)NC(=O)[C@H](CCCNC(=N)N)N(C)C(=O)[C@@H](Cc2ccccc2)NC(=O)[C@H](Cc2c[nH]cn2)NC1=O [^177Lu-labeled CCZ01118, metal not drawn]; 0.13
CCCC[C@H](NC(=O)CN1CCC(NC(=O)[C@H](CCCCNC(=O)CN2CCN(CC(=O)O)CCN(CC(=O)O)CCN(CC(=O)O)CC2)NC(=O)[C@H](CCC(=O)O)NC(=O)CCCc2ccc(I)cc2)CC1)C(=O)N[C@H]1CC(=O)NCCCC[C@@H](C(N)=O)N(C)C(=O)[C@H](Cc2c[nH]c3ccccc23)N(C)C(=O)[C@H](CCCNC(=N)N)N(C)C(=O)[C@@H](Cc2ccccc2)NC(=O)[C@H](Cc2c[nH]cn2)N(C)C1=O [^177Lu-labeled CCZ01088, metal not drawn]; 0.23

Could you now look at the following compound, please?
Param item = CCCC[C@H](NC(=O)CN1CCC(NC(=O)[C@H](CCCCNC(=O)CN2CCN(CC(=O)O)CCN(CC(=O)O)CCN(CC(=O)O)CC2)NC(=O)[C@H](CCC(=O)O)NC(=O)CCCc2ccc(I)cc2)CC1)C(=O)N[C@H]1CC(=O)NCCCC[C@@H](C(N)=O)NC(=O)[C@H](Cc2c[nH]c3ccccc23)NC(=O)[C@H](CCCNC(=N)N)NC(=O)[C@@H](Cc2ccccc2)NC(=O)[C@H](Cc2c[nH]cn2)NC1=O [^177Lu-labeled CCZ01082, metal not drawn] ; retrieve measured tissue uptake at 24 h.
0.31
